Measured values drawn from patent US7691855B2 for this set.

quantity kind: melting point (°C)

Completed entries (count: 5):
compound: CN1CCC(n2cc(-c3ccnc(Nc4ccc(CN5CCN(C)CC5)cc4)n3)c(-c3ccc(Cl)cc3)n2)CC1 [Example 80]
melting point (°C): 164

compound: Cc1cccc(-c2n[nH]cc2-c2ccnc(Nc3ccc(N4CCN(C)CC4)cc3)n2)c1C [Example 50]
melting point (°C): 305

compound: CCN1CCN(Cc2ccc(Nc3nccc(-c4c[nH]nc4-c4ccc(Cl)cc4)n3)cc2)CC1 [Example 114]
melting point (°C): 247

compound: Clc1ccc(-c2n[nH]cc2-c2ccnc(Nc3ccc(-c4nnn[nH]4)cc3)n2)cc1 [Example 116]
melting point (°C): 369

compound: COc1ccc(Nc2nccc(-c3cnn(CCN(C)C)c3-c3ccc(Cl)cc3)n2)cc1OC [Example 73]
melting point (°C): 157

I = COc1ccc(Nc2nccc(-c3cn(C)nc3-c3ccc(Cl)cc3Cl)n2)cc1OC [Example 57]
II = COc1cccc(Nc2nccc(-c3c[nH]nc3-c3ccc(Cl)cc3)n2)c1 [Example 69]
Enquiry: For the pair I and II , which entry has the numerically smaller recorded melting point? Let me know the label of the one you choose.
Return: I

P = COc1cc(Nc2nccc(-c3cnn(CCN(C)C)c3-c3ccc(Cl)cc3)n2)cc(OC)c1OC [Example 71]
Q = CCN1CCN(c2ccc(Nc3nccc(-c4c[nH]nc4-c4ccc(C)cc4)n3)cc2)CC1 [Example 109]
R = Cc1ccc(-c2nn(CCN(C)C)cc2-c2ccnc(Nc3ccc(CN4CCN(C)CC4)cc3)n2)cc1 [Example 83]
Enquiry: Sort the compounds on melting point; start with the lowest figure. Rank the items, then write their labels in that order.
Return: R, P, Q
(R: 62 °C, P: 153 °C, Q: 280 °C)

A = COc1cccc(Nc2nccc(-c3cnn(CC4CCN(C)CC4)c3-c3ccc(Cl)cc3)n2)c1 [Example 108]
B = Cc1ccc(-c2c(-c3ccnc(Nc4ccc(N5CCN(C)CC5)cc4)n3)cnn2C)cc1 [Example 63]
Enquiry: Between A and B , whose measured melting point reads higher? Let me know the label of the one you choose.
Return: B

----------
quantity kind: melting point (°C)

I = COc1ccc(Nc2nccc(-c3cnn(C)c3-c3ccc(Cl)cc3Cl)n2)cc1OC
II = Cc1ccc(-c2n[nH]cc2-c2ccnc(Nc3ccc(CN4CCN(C)CC4)cc3)n2)cc1
Enquiry: For the pair I and II , which entry has the numerically smaller recorded melting point? Let me know the label of the one you choose.
Return: I

I = Cc1ccc(-c2c(-c3ccnc(Nc4ccc(CN5CCN(C)CC5)cc4)n3)cnn2C)cc1
II = CN1CCN(c2ccc(Nc3nccc(-c4c[nH]nc4-c4ccccc4Cl)n3)cc2)CC1
Enquiry: Between I and II , whose measured melting point reads higher? Let me know the label of the one you choose.
Return: II

A = CN1CCN(Cc2ccc(Nc3nccc(-c4cnn(C)c4-c4ccc(Cl)cc4)n3)cc2)CC1
B = COc1cc(Nc2nccc(-c3c[nH]nc3-c3ccc(Cl)cc3)n2)cc(OC)c1OC
Enquiry: For the pair A and B , which entry has the numerically smaller recorded melting point? Let me know the label of the one you choose.
Return: A
(A: 186 °C, B: 271 °C)

----------
study target: EGF-R (HER-1) (Homo sapiens)
Construct: using the recombinant intracellular domain of the EGF-receptor [EGF-R ICD
Sequence (P00533 669-1210 limits assumed): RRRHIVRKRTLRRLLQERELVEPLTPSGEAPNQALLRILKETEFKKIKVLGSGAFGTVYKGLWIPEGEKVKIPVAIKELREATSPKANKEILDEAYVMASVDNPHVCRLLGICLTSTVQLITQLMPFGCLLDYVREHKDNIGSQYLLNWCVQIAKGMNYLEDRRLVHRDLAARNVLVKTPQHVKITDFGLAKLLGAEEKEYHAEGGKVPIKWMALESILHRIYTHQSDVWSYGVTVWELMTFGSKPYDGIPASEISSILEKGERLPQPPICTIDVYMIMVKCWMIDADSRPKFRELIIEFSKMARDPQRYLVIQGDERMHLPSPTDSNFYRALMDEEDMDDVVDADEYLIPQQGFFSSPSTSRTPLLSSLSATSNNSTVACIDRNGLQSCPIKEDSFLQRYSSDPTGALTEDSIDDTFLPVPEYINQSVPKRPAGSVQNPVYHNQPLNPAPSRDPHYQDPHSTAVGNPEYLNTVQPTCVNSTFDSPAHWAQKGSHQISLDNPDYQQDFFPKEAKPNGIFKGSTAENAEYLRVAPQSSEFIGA
assay details: Inhibition of EGF-R (HER-1) tyrosine kinase activity
condition summary: recombinant intracellular domain of the EGF-receptor
Procedure: J. Biochem. 207, 265-275 (1992)]. Compared with the control without inhibitor, the compounds of formula I inhibit the enzyme activity by 50% (IC50), for example in a concentration of from 0.0005 to 0.5 μM, especially from 0.001 to 0.1 μM. Inhibition of the tyrosine kinase Activity of EGF-R (HER-1), ErbB-2 (HER-2) and VEGF Receptor (KDR) The inhibition tests are carried out as described above.
pIC50: −log10 of the molar value.
quantity kind: pIC50

P = Cc1ccc(-c2n[nH]cc2-c2ccnc(Nc3ccc(CN4CCN(C)CC4)cc3)n2)cc1 [Example 60]
Q = Cc1ccc(-c2n[nH]cc2-c2ccnc(Nc3cccc(OCC4CCN(C)CC4)c3)n2)cc1 [Example 124]
Enquiry: For the pair P and Q , which entry has the numerically smaller recorded pIC50? Let me know the label of the one you choose.
Return: P
(P: 7.70, Q: 8.52)
